assay: Toxicity of Compound No. 1 038, oral route, rats; format: in vivo; conditions: rat, in vivo, po, male
Metric: LD50 (mg/kg)
Field format: number, assumed mg/kg, no unit text.

Input: Look at this molecule and give its reported LD50. "O=C(O)CCCNS(=O)(=O)c1cccc(C(F)(F)F)c1"
Output: 13000

###

Reported CHOLESTEROL T, Score with respect to clofibrate by item:
system: atherosclerosis inducing diet (cholesterol, cholic acid, vitamine D2); assay: Atherosclerosis inducing diet: biochemical exams; format: in vivo, Wistar female rats; details: clofibrate counted as 1

Compound	Result value
O=C(O)CCCNS(=O)(=O)c1cccnc1 [compound 786]	1,11

Input: Look at this compound and give its reported CHOLESTEROL T, Score with respect to clofibrate. O=C(O)CCCNS(=O)(=O)c1cccc(C(F)(F)F)c1 [Compound No. 1038]
Output: 1,06

Input: Look at this compound and give its reported CHOLESTEROL T, Score with respect to clofibrate. CCOC(=O)CCCNS(=O)(=O)c1cccc([N+](=O)[O-])c1 [compound 679]
Output: 1,09

Input: Look at this compound and give its reported CHOLESTEROL T, Score with respect to clofibrate. CCOC(=O)C(C)(C)Oc1ccc(Cl)cc1 [CLOFIBRATE, clofibrate, reference compound]
Output: 1,00

###

experiment: Toxicity of Compound No. 1 038, oral route, mice; type: in vivo; conditions: mouse, in vivo, po, female
Metric: LD50 (mg/kg)
Field format: number, assumed mg/kg, no unit text.

Input: Look at this compound and give its reported LD50. "O=C(O)CCCNS(=O)(=O)c1cccc(C(F)(F)F)c1"
Output: 6600

###

system: hyperlipidemia caused by the administration of TRITON; assay: Triton test: lipid regulating activity in hyperlipidemia caused by TRITON W. R.; assay type: in vivo, WISTAR male rats; conditions: Rattus norvegicus, po; 250 mg/kg orally; 6 hours and/or 24 hours; read-out: Total lipids, % of decrease with respect to Triton control
Metric: change in vivo at 250 mg/kg (%)
Field format: number, assumed %, no unit text.

Compound	change in vivo at 250 mg/kg, %
Nc1cccc(S(=O)(=O)NCCCC(=O)O)c1 [compound 680]	-46
CCOC(=O)CCCCCCCCCCNS(=O)(=O)c1cccc(N)c1 [compound 683]	-19
CCOC(=O)CCCNS(=O)(=O)c1cc(Cl)c(N)cc1OC [compound 484]	-41
COc1cc([N+](=O)[O-])c(Cl)cc1S(=O)(=O)NCCCCCC(=O)O [compound 362]	-39
COc1cc(N)ccc1S(=O)(=O)NCCCCCCCCCCC(=O)O [compound 668]	-20
COc1cc(N)ccc1S(=O)(=O)NCCCCCC(=O)O [compound 694]	-31
CCOC(=O)CCCCCCCCCCNS(=O)(=O)c1ccc([N+](=O)[O-])cc1OC [compound 611]	-15
CCOC(=O)CCCCCNS(=O)(=O)c1cc(Cl)c([N+](=O)[O-])cc1OC [compound 380]	-31

Input: GET /values?readout=change in vivo at 250 mg/kg&system=hyperlipidemia caused by the administration of TRITON&item= O=C(O)CCCCCCCCCCNS(=O)(=O)c1cccc([N+](=O)[O-])c1 [compound 697]
Output: -35

Input: GET /values?readout=change in vivo at 250 mg/kg&system=hyperlipidemia caused by the administration of TRITON&item= CCOC(=O)CCCCCNS(=O)(=O)c1ccc([N+](=O)[O-])cc1 [compound 563]
Output: -27

Input: GET /values?readout=change in vivo at 250 mg/kg&system=hyperlipidemia caused by the administration of TRITON&item= COc1cc([N+](=O)[O-])c(Cl)cc1S(=O)(=O)NCCCC(=O)O [compound 387]
Output: -39

Input: GET /values?readout=change in vivo at 250 mg/kg&system=hyperlipidemia caused by the administration of TRITON&item= Nc1ccc(S(=O)(=O)NCCCCCC(=O)O)cc1 [compound 665]
Output: -30

Input: GET /values?readout=change in vivo at 250 mg/kg&system=hyperlipidemia caused by the administration of TRITON&item= CCOC(=O)CCCCCCCCCCNS(=O)(=O)c1cc(Cl)c([N+](=O)[O-])cc1OC [compound 502]
Output: -45

Input: GET /values?readout=change in vivo at 250 mg/kg&system=hyperlipidemia caused by the administration of TRITON&item= Nc1cccc(S(=O)(=O)NCCCCCCCCCCC(=O)O)c1 [compound 695]
Output: -20

Input: GET /values?readout=change in vivo at 250 mg/kg&system=hyperlipidemia caused by the administration of TRITON&item= CCOC(=O)CCCNS(=O)(=O)c1ccc(N)cc1OC [compound 656]
Output: -3

Input: GET /values?readout=change in vivo at 250 mg/kg&system=hyperlipidemia caused by the administration of TRITON&item= COc1cc([N+](=O)[O-])ccc1S(=O)(=O)NCCCC(=O)O [compound 660]
Output: -36

Input: GET /values?readout=change in vivo at 250 mg/kg&system=hyperlipidemia caused by the administration of TRITON&item= CCOC(=O)CCCCCNS(=O)(=O)c1cc(Cl)c(N)cc1OC [compound 469]
Output: -30

Input: GET /values?readout=change in vivo at 250 mg/kg&system=hyperlipidemia caused by the administration of TRITON&item= CCOC(=O)CCCCCNS(=O)(=O)c1ccc([N+](=O)[O-])cc1OC [compound 608]
Output: -15

###

Reported CHOLESTEROL LDL, % reduction with respect to the control diet by item:
test system: atherosclerosis inducing diet (cholesterol, cholic acid, vitamine D2); test: Atherosclerosis inducing diet: biochemical exams; format: in vivo, Wistar female rats; parameters: concentration or dose not given beside the values; conditions: LDL; 4 weeks administration

Compound	Tested system	Result value
O=C(O)CCCNS(=O)(=O)c1cccnc1 [compound 786]	atherosclerosis inducing diet (cholesterol, cholic acid, vitamine D2)	-57,07%

Input: Look at this compound and give its reported CHOLESTEROL LDL, % reduction with respect to the control diet. CCOC(=O)CCCNS(=O)(=O)c1cccc([N+](=O)[O-])c1 [compound 679]
Output: -60,14%

Input: Look at this compound and give its reported CHOLESTEROL LDL, % reduction with respect to the control diet. O=C(O)CCCNS(=O)(=O)c1cccc(C(F)(F)F)c1 [Compound No. 1038]
Output: -58,26%

Input: Look at this compound and give its reported CHOLESTEROL LDL, % reduction with respect to the control diet. CCOC(=O)C(C)(C)Oc1ccc(Cl)cc1 [CLOFIBRATE, clofibrate, reference compound]
Output: -55,37%

Where do these numbers come from? They come from patent US4613618A.
